This collection of values is drawn from patent US20240270821A1.

experimental target: hGIPR (Homo sapiens, UniProt P48546)
Sequence (P48546 22-466): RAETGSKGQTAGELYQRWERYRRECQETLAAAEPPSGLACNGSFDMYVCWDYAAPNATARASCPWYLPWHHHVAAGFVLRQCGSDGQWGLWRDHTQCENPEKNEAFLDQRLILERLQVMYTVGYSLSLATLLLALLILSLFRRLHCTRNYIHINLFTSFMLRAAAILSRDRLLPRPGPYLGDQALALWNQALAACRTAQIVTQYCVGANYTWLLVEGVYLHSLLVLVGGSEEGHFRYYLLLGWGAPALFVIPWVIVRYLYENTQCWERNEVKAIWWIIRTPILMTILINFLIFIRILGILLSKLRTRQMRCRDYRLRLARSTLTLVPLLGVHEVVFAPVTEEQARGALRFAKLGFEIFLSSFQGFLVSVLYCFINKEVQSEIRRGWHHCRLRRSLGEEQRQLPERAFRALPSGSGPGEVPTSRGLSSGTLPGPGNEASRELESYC
test summary: Functional cAMP activation in the presence of 0.1% casein (no HSA);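 further: intracellular cAMP rise after 30 min at 37 °C read by HTRF against a standard curve, scaled between buffer alone (0%) and top control ligand concentration (100%), four-parameter fit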
Format: cell-based
condition description: read-out: Relative cAMP EC50, hGIPR
Starred links: 1 amine or outer side, 2 acyl side, 3 side chain; linkers in the order of their positions; H or OH if unused. Non-standard residues stand in square brackets, D forms with d. Groups on a side chain read outwards from the residue. No end group written: not given here. *: point of attachment. C18 diacid = O=C(O)CCCCCCCCCCCCCCCCC(=O)*; αMePhe(2-F) = C[C@](N)(Cc1ccccc1F)C(=O)O; γGlu = O=C(O)[C@H](CCC(=O)[*:2])N[*:1]; αMe4Pal = C[C@](N)(Cc1ccncc1)C(=O)O; αMeY = C[C@](N)(Cc1ccc(O)cc1)C(=O)O; 4Pal = N[C@@H](Cc1ccncc1)C(=O)O; αMeL = CC(C)C[C@](C)(N)C(=O)O; αMeS = C[C@](N)(CO)C(=O)O; Orn = NCCC[C@H](N)C(=O)O; AEEA = NCCOCCOCC(=O)O; Aib = CC(C)(N)C(=O)O
Consider the cut-off 0.07 nM. If the recorded EC50 is strictly smaller, the label is MET; if not, the label is NOT MET.

H-Y[Aib]QGT[αMePhe(2-F)]TSD[4Pal][αMeS]I[αMeL]LD[Orn]K([AEEA-γGlu-C18 diacid])AQ[Aib][Orn]FI[dE]YLIEGGPSSGEPPPSGTEE-NH2 [Example 533] : MET
H-Y[Aib]QGT[αMePhe(2-F)]TSD[4Pal]SI[αMeL]LD[Orn]K([AEEA-γGlu-C18 diacid])AQ[αMe4Pal][Orn]FI[dE][αMeY]LIEGGPSSGEPPPETE-NH2 [Example 678] : MET
H-Y[Aib]QGT[αMePhe(2-F)]TSD[4Pal][αMeS]I[αMeL]LD[Orn]K([AEEA-γGlu-C18 diacid])AA[Aib]EFI[dE][αMeY]LVEGGPSSGAPPPSGS-NH2 [Example 693] : MET

EC50 under 0.07 nM? Item: H-Y[Aib]QGT[αMePhe(2-F)]TSD[4Pal][αMeS]I[αMeL]LD[Orn]K([γGlu-γGlu-C18 diacid])AQ[Aib][Orn]FI[dE][αMeY]LTEGGPSSGEPPPEGTEEE-NH2 [Example 598]
NOT MET

EC50 under 0.07 nM? Item: H-Y[Aib]QGT[αMePhe(2-F)]TSD[4Pal]SI[αMeL]LD[Orn]K([γGlu-γGlu-C18 diacid])AQ[αMe4Pal][Orn]FI[dE][αMeY]LIEGGPSSGEPPPEGTE-NH2 [Example 687]
MET

EC50 under 0.07 nM? Item: H-Y[Aib]QGT[αMePhe(2-F)]TSD[4Pal]SI[αMeL]LDKK([γGlu-γGlu-C18 diacid])AQ[Aib]AFIEYLEEGGPSSGAPPPSGEGE-NH2 [Example 623]
MET

EC50 under 0.07 nM? Item: H-Y[Aib]QGT[αMePhe(2-F)]TSD[4Pal][αMeS]I[αMeL]LD[Orn]K([γGlu-γGlu-C18 diacid])AQ[Aib][Orn]FI[dE][αMeY]LAEGGPSSGEPPPSGGEE-NH2 [Example 590]
NOT MET

EC50 under 0.07 nM? Item: H-Y[Aib]QGT[αMePhe(2-F)]TSD[4Pal]SILLDKK([γGlu-γGlu-C18 diacid])AQ[Aib]AFIEYLEEGGPSSGAPPPSGEEE-NH2 [Example 611]
NOT MET

EC50 under 0.07 nM? Item: Y[Aib]QGT[αMePhe(2-F)]TSD[4Pal]SI[αMeL]LD[Orn]K([AEEA-AEEA-γGlu-C18 diacid])AQ[αMe4Pal]EFI[dE][αMeY]LLEGGPSSGAPPPSGE-NH2 [Example 613]
MET
